# Tested on: Danio rerio larvae (5 dpf)
# Protocol Text: difference in habituation to acoustic stimuli vs DMSO (percentage points); higher = more habituation than DMSO
# Experimental Conditions: 10 µM; exposure time 6 h
Everything with difference in habituation to acoustic stimuli lower than -2 is no; everything else, including exactly -2, is yes.

Example entries and their recorded answers appear below.
Compound	Study Target	Category
Nc1ccc(S(=O)(=O)Nc2ncccn2)cc1	Danio rerio larvae (5 dpf)	yes
CCCCNc1cc(C(=O)O)cc(S(N)(=O)=O)c1Oc1ccccc1 [Bumetanide]	Danio rerio larvae (5 dpf)	no
CN1CCN(C2=Nc3ccccc3Oc3ccc(Cl)cc32)CC1 [Loxapine (succinate)]	Danio rerio larvae (5 dpf)	no
Cc1nc(Nc2ncc(C(=O)Nc3c(C)cccc3Cl)s2)cc(N2CCN(CCO)CC2)n1	Danio rerio larvae (5 dpf)	yes

Consider the additional compound presented here.
Req: Given C[C@H](Cn1cnc2c(N)ncnc21)OCP(=O)(O)O , state whether its difference in habituation to acoustic stimuli is at least -2.
Resp: no

====

# Tested on: Danio rerio larvae (5 dpf)
# Protocol Text: difference in activity during first hour vs DMSO (percentage points); higher = more activity than DMSO
# Experimental Conditions: 10 µM; exposure time 6 h
Counter-ions that a name gives are not always drawn.
I'd be grateful if you could share measured difference in activity during first hour for these entries.
Give bare numbers.

Recorded results for 4 compounds are shown here.
Compound	difference in activity during first hour
CC1(C)C[C@@H]1C(=O)N/C(=C\CCCCSC[C@H](N)C(=O)O)C(=O)O [Cilastatin]	15
COC[C@H]1C[C@@H](c2nc(-c3ccc4c(c3)COc3cc5c(ccc6nc([C@@H]7CC[C@H](C)N7C(=O)[C@@H](NC(=O)OC)C(C)C)[nH]c65)cc3-4)c[nH]2)N(C(=O)[C@H](NC(=O)OC)c2ccccc2)C1 [Velpatasvir]	2
COc1cccc2c1C(=O)c1c(O)c3c(c(O)c1C2=O)C[C@@](O)(C(=O)CO)C[C@@H]3O[C@H]1C[C@H](N)[C@@H](O)[C@H](C)O1 [Epirubicin (hydrochloride)]	-7.5
CC(O)(P(=O)(O)O)P(=O)(O)O [Etidronate (sodium salt)]	11.4

Quick request: difference in activity during first hour for each listed item, please.
1. CCc1c2c(nc3ccc(OC(=O)N4CCC(N5CCCCC5)CC4)cc13)-c1cc3c(c(=O)n1C2)COC(=O)[C@]3(O)CC [Irinotecan (hydrochloride hydrate)]
2. CCOc1cc(CC(=O)N[C@@H](CC(C)C)c2ccccc2N2CCCCC2)ccc1C(=O)O [Repaglinide]

Resp:
0.361
14.4

====

# Tested on: Danio rerio larvae (5 dpf)
# Protocol Text: difference in habituation to acoustic stimuli vs DMSO (percentage points); higher = more habituation than DMSO
# Experimental Conditions: 10 µM; exposure time 6 h
Counter-ions that a name gives are not always drawn.
Everything with difference in habituation to acoustic stimuli lower than -2 is 0.0; everything else, including exactly -2, is 1.0.

Example entries and their recorded answers appear below.
Compound	Category
CN(Cc1cnc2nc(N)nc(N)c2n1)c1ccc(C(=O)N[C@@H](CCC(=O)O)C(=O)O)cc1 [Methotrexate (hydrate)]	1.0
CCCc1nc(C)c2c(=O)nc(-c3cc(S(=O)(=O)N4CCN(CC)CC4)ccc3OCC)[nH]n12 [Vardenafil (hydrochloride hydrate)]	1.0
CCCCCCCCCCCCCCCCCCCCCCO	0.0
Brc1c(NC2=NCCN2)ccc2nccnc12 [Brimonidine (tartrate)]	1.0
C[C@H](Cc1cc2c(c(C(N)=O)c1)N(CCCO)CC2)NCCOc1ccccc1OCC(F)(F)F	0.0
Nc1nc(N)c2nc(-c3ccccc3)c(N)nc2n1	0.0
Cc1ccc(C(=O)c2cc(O)c(O)c([N+](=O)[O-])c2)cc1	0.0

Consider the additional compound presented here.
Req: Given O=c1ccn([C@@H]2O[C@H](CO)[C@@H](O)[C@H]2O)c(=O)[nH]1 , state whether its difference in habituation to acoustic stimuli is at least -2.
Resp: 0.0

====

# System: Danio rerio larvae (5 dpf)
# Protocol Text: difference in startle response vs DMSO (percentage points); higher = stronger startle than DMSO
# Experimental Conditions: 10 µM; exposure time 6 h
Counter-ions that a name gives are not always drawn.
I'd be grateful if you could share measured difference in startle response for these entries.
One number for each entry.

Molecule	Study Target	difference in startle response
CC(C)Nc1cccnc1N1CCN(C(=O)c2cc3cc(NS(C)(=O)=O)ccc3[nH]2)CC1 [Delavirdine (mesylate)]	Danio rerio larvae (5 dpf)	-1.52
Cc1ccc(N(CC2=NCCN2)c2cccc(O)c2)cc1 [Phentolamine (mesylate)]	Danio rerio larvae (5 dpf)	0.261
CCCCCN(C)CCC(O)(P(=O)(O)O)P(=O)(O)O [Ibandronate (sodium hydrate)]	Danio rerio larvae (5 dpf)	1.53
CC(=O)Nc1cccc(-n2c(=O)n(C3CC3)c(=O)c3c(Nc4ccc(I)cc4F)n(C)c(=O)c(C)c32)c1	Danio rerio larvae (5 dpf)	0.301

Quick request: difference in startle response for each listed item, please.
1. CCC(=O)O[C@]1(C(=O)CCl)[C@@H](C)C[C@H]2[C@@H]3CCC4=CC(=O)C=C[C@]4(C)[C@@]3(F)[C@@H](O)C[C@@]21C [Clobetasol Propionate]
2. C[C@]12CCC3=C4CCC(=O)C=C4CC[C@H]3[C@@H]1CC[C@@]2(O)CC#N

Resp:
1: -8.98; 2: -3.1

Quick request: difference in startle response for each listed item, please.
1. CC[C@H]1OC(=O)[C@H](C)[C@@H](O[C@H]2C[C@@](C)(OC)[C@@H](O)[C@H](C)O2)[C@H](C)[C@@H](O[C@@H]2O[C@H](C)C[C@H](N(C)C)[C@H]2O)[C@](C)(OC)C[C@@H](C)C(=O)[C@H](C)[C@@H](O)[C@]1(C)O
2. CC/C=C\C/C=C\C/C=C\C/C=C\C/C=C\CCCC(=O)OCC
3. CCCCC[C@H](O)/C=C/[C@@H]1[C@H]2C/C(=C/CCCC(=O)O)O[C@H]2C[C@H]1O [Prostaglandin I2 (sodium salt)]
4. COc1cccc2c1C(=O)c1c(O)c3c(c(O)c1C2=O)C[C@@](O)(C(=O)CO)C[C@@H]3O[C@H]1C[C@H](N)[C@@H](O)[C@H](C)O1 [Epirubicin (hydrochloride)]
5. CC(=O)N[C@@H](CS)C(=O)O
6. NS(=O)(=O)c1cc2c(cc1C(F)(F)F)NC(Cc1ccccc1)NS2(=O)=O (centres undefined) [Bendroflumethiazide]
7. Cc1ccc(C)c(OCCCC(C)(C)C(=O)O)c1
8. OC(Cn1cncn1)(Cn1cncn1)c1ccc(F)cc1F

Resp:
1. 1.97
2. 2.48
3. 3.79
4. 0.312
5. 3.63
6. -5.47
7. -10.7
8. -5.1

====

# System: Danio rerio larvae (5 dpf)
# Protocol Text: difference in habituation to acoustic stimuli vs DMSO (percentage points); higher = more habituation than DMSO
# Experimental Conditions: 10 µM; exposure time 6 h
Counter-ions that a name gives are not always drawn.
Outcome Measure: difference in habituation to acoustic stimuli

Quick request: difference in habituation to acoustic stimuli for each listed item, please.
1. C[C@@H]1[C@H](O)[C@@H](C)/C=C/C=C/C=C/C=C/C=C/C=C/C=C/[C@H](O[C@@H]2O[C@H](C)[C@@H](O)[C@H](N)[C@@H]2O)C[C@@H]2O[C@](O)(C[C@@H](O)C[C@@H](O)[C@H](O)CC[C@@H](O)C[C@@H](O)CC(=O)O[C@H]1C)C[C@H](O)[C@H]2C(=O)O
2. COc1cccc2c1C(=O)c1c(O)c3c(c(O)c1C2=O)C[C@@](O)(C(=O)CO)C[C@@H]3O[C@H]1C[C@H](N)[C@H](O)[C@H](C)O1 [Doxorubicin (hydrochloride)]
3. C#C[C@]1(O)CC[C@H]2[C@@H]3CCC4=CCCC[C@@H]4[C@H]3C(=C)C[C@@]21CC

Resp:
-0.401
6.05
-6.42

====

# Tested on: Danio rerio larvae (5 dpf)
# Protocol Text: difference in habituation to acoustic stimuli vs DMSO (percentage points); higher = more habituation than DMSO
# Experimental Conditions: 10 µM; exposure time 6 h
Where a name gives a salt, the structure may show the parent alone.
I'd be grateful if you could share measured difference in habituation to acoustic stimuli for these entries.
Numbers only.

Recorded results for 5 molecules are shown here.
Molecule	Study Target	Assay Value
CCCCCCOC(=O)CCC(=O)CN [Hexaminolevulinate (hydrochloride)]	Danio rerio larvae (5 dpf)	7.86
O=C(O)CCNC(=O)c1ccc(/N=N/c2ccc(O)c(C(=O)O)c2)cc1 [Balsalazide]	Danio rerio larvae (5 dpf)	1.8
CC(C)NCC(O)c1ccc(NS(C)(=O)=O)cc1 (stereo not drawn) [Sotalol (hydrochloride)]	Danio rerio larvae (5 dpf)	-2.03
Cn1c(=O)c2[nH]cnc2n(C)c1=O [Oxtriphylline]	Danio rerio larvae (5 dpf)	1.02
Clc1ccc(COC(Cn2ccnc2)c2ccc(Cl)cc2Cl)c(Cl)c1 (stereo not drawn) [Miconazole (nitrate)]	Danio rerio larvae (5 dpf)	-11.4

Quick request: difference in habituation to acoustic stimuli for each listed item, please.
1. O=C1CN2Cc3c(ccc(Cl)c3Cl)N=C2N1 [Anagrelide (hydrochloride)]
2. CCCN(CCC)CCc1cccc2c1CC(=O)N2 [Ropinirole (hydrochloride)]

Resp:
1: 7.77; 2: -1.82

Req: Can you share its difference in habituation to acoustic stimuli? I mean this molecule: Nc1nc2[nH]cc(CCc3ccc(C(=O)N[C@@H](CCC(=O)O)C(=O)O)cc3)c2c(=O)[nH]1 [Pemetrexed (sodium salt hydrate)]
Resp: 4.63
